B1: Zinc finger MYM-type protein 2, residues 463 to 506; numbered along this chain, Q9UBW7 (parent)
chain: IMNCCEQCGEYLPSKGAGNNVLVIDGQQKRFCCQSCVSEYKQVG

# Variants of: B1
# assay-name: abundance fitness (aPCA) (normalised: wild type 0, dead -1); higher = more abundant; growth selection in yeast, the domain comes from the species named
# experimental-context: Homo sapiens
assay-endpoint: abundance fitness
Lab note: jot the number down without any unit.

Requested field: abundance fitness. Item: "D25C"
-0.25

Return reported abundance fitness; argument: "S38Q"
-0.01

Could you tell me which abundance fitness is on file for "Q7C" ?
-0.034

What measured abundance fitness goes with "E39G" ?
0.095

Requested read-out: abundance fitness. Entry: "Y11L"
0.034

Endpoint output: abundance fitness of "S14E" . Value?
0.13

Please report the recorded abundance fitness for "G26T" .
-0.291

Can you look up the measured abundance fitness of "Y11C" for me?
0.035

Fill in: abundance fitness of "N20V" is ___
-0.019

Given the variant "C33G" , what is its reported abundance fitness?
-0.023

Source: the Human Domainome abundance scans (Beltran et al. 2025)
